system: HEK-293T; assay: Multiplex assay against HEK293T; type: toxicity, cell-based; details: human, 12 h, 1 µM, compound concentration 1 uM, replicate 1
Reported Population Mitochondria Different-Phenotype (%) is given for each of the following compounds.
MEASUREMENT_LABEL: Population Mitochondria Different-Phenotype (%)

[
  {
    "COMPOUND": "N[C@](CC1c2ccccc2Oc2ccccc21)(C(=O)O)[C@H]1C[C@@H]1C(=O)O",
    "MEASUREMENT": "43%"
  },
  {
    "COMPOUND": "O=c1nc2[nH]c3ccccc3nc-2c(=O)[nH]1 [ALLOXAZINE]",
    "MEASUREMENT": "44%"
  },
  {
    "COMPOUND": "CC(C)(C)c1ccc(CSc2cnn(C(C)(C)C)c(=O)c2Cl)cc1 [PYRIDABEN]",
    "MEASUREMENT": "51%"
  },
  {
    "COMPOUND": "Cc1cc(-c2ccc3c(c2)CC[C@H]3N2CC3(CCN(C(=O)Cc4cn5cc(C)sc5n4)CC3)C2)ncn1 [PF-5190457]",
    "MEASUREMENT": "40%"
  },
  {
    "COMPOUND": "Cc1sc2c(c1C)C(c1ccc(Cl)cc1)=N[C@H](CC(=O)OC(C)(C)C)c1nnc(C)n1-2",
    "MEASUREMENT": "49%"
  },
  {
    "COMPOUND": "Nc1nc(CC(=O)Nc2ccc(CCNC[C@H](O)c3ccccc3)cc2)cs1 [MIRABEGRON]",
    "MEASUREMENT": "45%"
  },
  {
    "COMPOUND": "COc1cc(C(=O)N2CC[C@@H](O)[C@@H](N)C2)cc2nc(-c3cc4ccccc4n3CC3CC3)n(C)c12.Cl",
    "MEASUREMENT": "56%"
  },
  {
    "COMPOUND": "C=CCN1C[C@H](C(=O)N(CCCN(C)C)C(=O)NCC)C[C@@H]2c3cccc4[nH]cc(c34)C[C@H]21 [CABERGOLINE]",
    "MEASUREMENT": "51%"
  }
]
